The following variants are listed with their measured protein stability index values.
B1: MMP1 (parent)
chain: YTPDLPRADVDHAIEKAFQLWSNV

Variants of: B1
test.summary: protein stability index of a GFP-peptide fusion (GPS, HEK-293T) (PSI 1-6); higher = more stable;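 also: lentivirally expressed fusions sorted by FACS into six bins by GFP to DsRed ratio, PSI derived from sequencing read proportions per bin multiplied by bin number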
run.parameters: c terminus: a fixed tail appended

# mutant.code, protein stability index
data = [
    ("E15W", 1.83),
    ("N23Q", 1.57),
    ("P3C", 1.54),
    ("L20V", 2.76),
    ("T2L", 1.83),
    ("D9Q", 2.5),
    ("I14T", 1.39),
    ("P6G", 2.17),
    ("D11R", 2.69),
    ("S22C", 2.02),
    ("L5F", 2.64),
]
